These entries and their values trace back to patent US20180030151A1.

Each item that follows carries a reported % of Normalized, TF/FVIIa/FX complex assay, Ab 6.25 nM.
Study System: recombinant human TFPI (tissue factor pathway inhibitor) (human, UniProt P10646 29-304)
Assay Procedure: cell-based or functional assay
Field format: number, assumed %, no unit text.

The cases that follow already have their % of Normalized, TF/FVIIa/FX complex assay, Ab 6.25 nM on record.
clone 13 (antibody, V domains shown) VH: EVQLVESGGGLVKPGGSLRLSCAASGFTFSSYAMNWVRQAPGKGLEWVGTITTGGSHTYYADSVEGRFTISRDNAKNSLYLQMNSLRAEDTAVYYCARQDGNFLMDYWGQGTLVTVSS VL: DVVMTQTPLSLPVTLGQPASISCKSSPSLLDIDGKTYLNWLQQRPGQSPKRLIYLVSKLDSGVPDRFTGSGSGTDFTLKISRVEAEDVGVYYCWQGTHFPFTFGQGTKVEIKR    8.8
clone 1202 (antibody, V domains shown, scFv on yeast at selection; human IgG4/kappa IgG as purified; also called No. 1202 antibody) VH: EVQLVESGGGLVKPGGSLRLSCAASGFTFSSYAMNWVRQAPGKGLEWVGTITTGGSYTYYADSVDGRFTISRDNAKNSLYLKMNSLRAEDTAVYYCARQDGNFLMDYWGQGTLVTVSS VL: DVVMTQTPLSLPVTLGQPASISCKSSQSLLDIDGKTYLNWLQQRPGQSPKRLIYLVSKLDSGVPDRFTGSGSGTDFTLKISRVEAEDVGVYYCWQGTHFPFTFGQGTKVEIKR    6.9

Attention now turns to another entry.
Which value of % of Normalized, TF/FVIIa/FX complex assay, Ab 6.25 nM has been reported for clone 12 (antibody, V domains shown, human IgG4/kappa IgG as purified; also called No. 12 antibody) VH: EVQLVESGGGLVKPGGSLRLSCAASGFTFSSYAMNWVRQAPGKGLEWVGTITTGGSHTYYADSVEGRFTISRDNAKNSLYLQMNSLRAEDTAVYYCARQDGHFLMDYWGQGTLVTVSS VL: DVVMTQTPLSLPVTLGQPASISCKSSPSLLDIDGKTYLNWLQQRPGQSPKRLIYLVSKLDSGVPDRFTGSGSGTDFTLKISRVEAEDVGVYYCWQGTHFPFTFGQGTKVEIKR in the records?
7.8
